Task for the reader: assign each of the following molecules its reported log10 IC50.
# Experimental system: human recombinant HDAC6 (Homo sapiens, UniProt Q9UBN7)
# Experiment summary: HDAC6 enzyme activity inhibition assay (HDAC Fluorimetric Drug Discovery Kit)
# Details: same protocol as the HDAC1 enzyme activity test
// do not treat as linear: log10 of IC50, unit nM

Record excerpt, results attached:
> print(dat)
                               entry.smiles  assay.result
1  Cc1cccc(N(Cc2ccc(-c3nnc(C(F)F)o3)cc2F)S(C)(=O)=O)c1          1.30
2  CS(=O)(=O)N(Cc1cnc(-c2nnc(C(F)F)o2)cn1)c1ccccc1          1.83
3  CN(C)[C@H]1CCN(CCS(=O)(=O)N(Cc2ccc(-c3nnc(C(F)F)o3)cc2)c2ccccc2)C1          1.86

# return log10 IC50 for each item in the list
1. CS(=O)(=O)N(Cc1ccc(-c2nnc(C(F)F)o2)cc1F)c1cccc(Cl)c1
2. CS(=O)(=O)N(Cc1cnc(-c2nnc(C(F)(F)F)o2)nc1)c1ccccc1
3. CCS(=O)(=O)N(Cc1ccc(-c2nnc(C(F)F)o2)cn1)c1ccc(F)c(Cl)c1

1.30
3.18
0.85

----------
# Experimental system: human recombinant HDAC6 (Homo sapiens)
# Construct: purchased Calbiochem 382180
# Experiment summary: HDAC6 enzyme activity inhibition assay (HDAC Fluorimetric Drug Discovery Kit)
# Assay type: biochemical
# Details: HDAC1 vs HDAC6
HDAC6 selectivity (fold) of 1000 fold or higher: Yes. Under 1000 fold: No.

Field: example entries. Status: answers known.
> print(dat)
                                   molecule  classification
1  CS(=O)(=O)N(Cc1ccc(-c2nnc(C(F)F)o2)cc1)c1ccccc1 [Compound 11168]             Yes
2  CN(C)[C@@H]1CCN(CCS(=O)(=O)N(Cc2ccc(-c3nnc(C(F)F)o3)cc2)c2ccccc2)C1 [Compound 11754]             Yes
3  CS(=O)(=O)N(Cc1ccc(-c2nnc(C(F)F)o2)cc1)c1nc2ccccc2s1 [Compound 11740]              No
4  CC(C)N1CC(N2CCC(S(=O)(=O)N(Cc3ccc(-c4nnc(C(F)F)o4)cn3)c3cccc(Cl)c3)CC2)C1 [Compound 11781]             Yes

Dear colleague, could you confirm whether O=S(=O)(CCN1CCN(CCc2ccccc2)CC1)N(Cc1ccc(-c2nnc(C(F)F)o2)cc1)c1ccccc1 [Compound 11771] has HDAC6 selectivity (fold) at or above 1000 fold?
No

----------
# Experimental system: human recombinant HDAC6 (Homo sapiens)
# Experiment summary: HDAC6 enzyme activity inhibition assay (HDAC Fluorimetric Drug Discovery Kit)
# Details: same protocol as the HDAC1 enzyme activity test
Recorded endpoint: pIC50
Numbers only, as −log10 of the molar value.

Sample records with pIC50:
> print(dat)
                               entry.smiles                     experimental.system  assay.result
1  O=S(=O)(CCN1CCCCC1)N(Cc1ccc(-c2nnc(C(F)F)o2)cc1)c1ccccc1  human recombinant HDAC6 (Homo sapiens)          7.02
2  CC(=O)N1CC(N2CCC(S(=O)(=O)N(Cc3ccc(-c4nnc(C(F)F)o4)cn3)c3ccc(F)c(Cl)c3)CC2)C1  human recombinant HDAC6 (Homo sapiens)          7.85
3  CS(=O)(=O)N(Cc1ccc(-c2nnc(C(F)F)o2)cc1F)c1ccccc1C(F)(F)F  human recombinant HDAC6 (Homo sapiens)          7.03
4  CS(=O)(=O)N(Cc1ccc(-c2nnc(C(F)F)o2)cc1F)c1nncs1  human recombinant HDAC6 (Homo sapiens)          6.05

Parameter requested: pIC50. Apply to each item below.
1. CS(=O)(=O)N1CCN(CCS(=O)(=O)N(Cc2ccc(-c3nnc(C(F)F)o3)cc2)c2ccccc2)CC1
2. CCS(=O)(=O)N(Cc1ccc(-c2nnc(C(F)F)o2)cn1)c1cc(F)cc(F)c1
3. CC(=O)N1CCN(CCS(=O)(=O)N(Cc2ccc(-c3nnc(C(F)F)o3)cc2)c2ccccc2)CC1
4. CS(=O)(=O)N(Cc1ccc(-c2nnc(C(F)F)o2)cc1)c1ccc(Cl)cn1
5. CCN1CCC(S(=O)(=O)N(Cc2ccc(-c3nnc(C(F)F)o3)cc2F)c2ccccc2)CC1
6. CS(=O)(=O)N(Cc1ncc(-c2nnc(C(F)(F)F)o2)cn1)c1ccccc1
7. CS(=O)(=O)N(Cc1ccc(-c2nnc(C(F)(F)F)o2)cc1F)c1ccccc1C(F)(F)F
8. Cc1cccc(N(Cc2ccc(-c3nnc(C(F)F)o3)cc2)S(=O)(=O)C2CCN([C@H]3CC[C@H](F)CC3)CC2)c1

1. 7.32
2. 8.10
3. 7.34
4. 6.88
5. 8.00
6. 6.83
7. 6.63
8. 6.70

List reported pIC50 for each of these compounds:
1. CS(=O)(=O)N(Cc1ccc(-c2nnc(C(F)F)o2)cc1)c1cncnc1
2. CS(=O)(=O)N(Cc1ccc(-c2nnc(C(F)F)o2)cc1F)c1ccc(Br)cc1
3. O=S(=O)(CCN1CCN(CCO)CC1)N(Cc1ccc(-c2nnc(C(F)F)o2)cc1)c1ccccc1
4. O=S(=O)(CCCN1CCC(F)(F)C1)N(Cc1ccc(-c2nnc(C(F)F)o2)cn1)c1ccccc1
5. O=S(=O)(CCCO)N(Cc1ccc(-c2nnc(C(F)F)o2)cc1)c1ccccc1

6.94
7.28
6.94
7.07
7.11

For the compound CS(=O)(=O)N(Cc1ccc(-c2nnc(C(F)F)o2)cn1)c1ccc(F)c(Cl)c1 , what pIC50 is on record?
7.92

----------
# Experimental system: human recombinant HDAC6 (Homo sapiens)
# Sequence (Q9UBN7 1-1215): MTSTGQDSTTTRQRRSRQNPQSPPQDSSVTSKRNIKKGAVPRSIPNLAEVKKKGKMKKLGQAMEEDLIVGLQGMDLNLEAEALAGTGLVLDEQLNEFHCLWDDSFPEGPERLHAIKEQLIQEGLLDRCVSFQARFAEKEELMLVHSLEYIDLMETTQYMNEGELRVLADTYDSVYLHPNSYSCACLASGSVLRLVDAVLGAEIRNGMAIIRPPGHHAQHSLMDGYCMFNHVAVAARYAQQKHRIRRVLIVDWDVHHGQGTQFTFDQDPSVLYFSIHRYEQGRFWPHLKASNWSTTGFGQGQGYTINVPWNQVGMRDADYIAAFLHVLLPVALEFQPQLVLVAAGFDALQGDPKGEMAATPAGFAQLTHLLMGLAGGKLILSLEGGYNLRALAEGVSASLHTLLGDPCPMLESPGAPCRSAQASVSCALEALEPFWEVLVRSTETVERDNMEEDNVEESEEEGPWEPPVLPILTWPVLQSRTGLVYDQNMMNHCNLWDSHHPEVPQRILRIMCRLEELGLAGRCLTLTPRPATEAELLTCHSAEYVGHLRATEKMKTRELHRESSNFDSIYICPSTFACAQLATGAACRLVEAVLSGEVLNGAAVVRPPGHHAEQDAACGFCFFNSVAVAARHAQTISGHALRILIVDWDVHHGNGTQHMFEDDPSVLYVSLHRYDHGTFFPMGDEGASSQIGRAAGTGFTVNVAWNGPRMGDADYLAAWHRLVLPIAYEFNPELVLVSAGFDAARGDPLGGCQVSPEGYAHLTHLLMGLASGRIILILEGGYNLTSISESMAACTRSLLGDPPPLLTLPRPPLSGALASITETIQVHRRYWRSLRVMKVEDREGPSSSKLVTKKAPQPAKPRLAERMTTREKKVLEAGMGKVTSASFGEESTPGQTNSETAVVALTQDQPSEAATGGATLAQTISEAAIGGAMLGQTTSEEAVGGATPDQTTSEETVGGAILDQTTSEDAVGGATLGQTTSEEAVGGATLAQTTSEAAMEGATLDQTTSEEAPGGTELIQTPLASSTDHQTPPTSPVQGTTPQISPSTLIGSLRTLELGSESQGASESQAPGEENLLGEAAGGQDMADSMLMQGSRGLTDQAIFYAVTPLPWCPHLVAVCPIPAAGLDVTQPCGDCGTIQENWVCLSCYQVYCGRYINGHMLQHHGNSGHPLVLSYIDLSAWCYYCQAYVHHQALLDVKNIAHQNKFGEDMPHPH
# Experiment summary: HDAC6 enzyme activity inhibition assay (HDAC Fluorimetric Drug Discovery Kit)
# Details: same protocol as the HDAC1 enzyme activity test
Recorded endpoint: pIC50
Give bare numbers, as −log10 of the molar value.

Look over these answered cases.
> print(dat)
                               entry.smiles  assay.result
1  O=S(=O)(C1CCN(C2COC2)CC1)N(Cc1ccc(-c2nnc(C(F)F)o2)cc1)c1cccc(Cl)c1          7.82
2  CS(=O)(=O)N(Cc1ccc(-c2nnc(C(F)F)o2)cc1F)c1ccccc1F          7.39
3  O=S(=O)(CCN1CCC(c2ccc(F)cc2)CC1)N(Cc1ccc(-c2nnc(C(F)F)o2)cc1)c1ccccc1          6.45

Look at this molecule and give its reported pIC50. CC(C)N1CCC(S(=O)(=O)N(Cc2ccc(-c3nnc(C(F)F)o3)cc2)c2ccccc2)CC1
7.64
